Target: Neu5Ac(a2-3)Gal(b1-4)GlcNAc(b1-3)Gal(b1-4)GlcNAc(b1-6)[Gal(b1-3)]GalNAc
Experiment: glycan array binding signal (z-score within array); higher = stronger binding
Conditions: glycan notation: IUPAC condensed, linker removed
The sample as a whole holds a higher share of the strongest signals than the screen did.
Experimental readout: glycan array binding signal (z-score)

Look up and report measured glycan array binding signal (z-score) for this entry: Aap arpt (Staphylococcus epidermidis) (protein) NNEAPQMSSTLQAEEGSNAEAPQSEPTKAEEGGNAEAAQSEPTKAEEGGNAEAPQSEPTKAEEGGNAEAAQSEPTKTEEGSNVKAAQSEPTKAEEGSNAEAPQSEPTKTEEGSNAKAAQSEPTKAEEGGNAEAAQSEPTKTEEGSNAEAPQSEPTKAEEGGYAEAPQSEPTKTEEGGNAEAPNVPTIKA
-0.491
